Assay: Viability assay: effect of selected compounds on viability
Assay type: cell-based
Details: 10 μM compound
Note to self: use condition met only for viability at 10 µM readings below 40%; a reading exactly at 40% still gets condition not met.

Qu. Quick check: viability at 10 µM of CCCSc1ccc2[nH]c(NC(=O)OCCN(C)C)nc2c1 under 40%?
Ans. condition met

Qu. COC(=O)Nc1nc2cc(Oc3cccc(N4CCN(C)CC4)n3)ccc2[nH]1 , same question.
Ans. condition met

Qu. CCCSc1ccc2[nH]c(NC(=O)OCCCN(C)C)nc2c1 , same question.
Ans. condition not met

Qu. COC(=O)Nc1nc2cc(C(=O)c3ccc(N(C)C4COC4)cc3)ccc2[nH]1 , same question.
Ans. condition met

Qu. COC(=O)Nc1nc2cc(Oc3cccc(N4CCN(C)CC4)c3)ccc2[nH]1 , same question.
Ans. condition not met

Qu. CN(C)CCCOC(=O)Nc1nc2cc(C(=O)c3ccc(F)cc3)ccc2[nH]1 , same question.
Ans. condition not met
